Here is a set of molecules with reported log10(IC50) for UniProtKB Q8MMZ8, compiled from the literature.
Reminder: these figures are log10 of reported IC50, in nM before transformation.

Known value: UniProtKB Q8MMZ8 log10(IC50) of the molecule CC(CN1CCC1)N1CCC(c2cc(-c3ccncc3)c(-c3ccc(F)cc3)[nH]2)CC1 (centres undefined) equals -0.40

Known value: UniProtKB Q8MMZ8 log10(IC50) of the molecule `CN(C)Cc1ccn2c(-c3ccnc(NC4CCC4)n3)c(-c3ccc(F)cc3)nc2c1` equals -0.66

Known value: UniProtKB Q8MMZ8 log10(IC50) of the molecule O=C(OCc1ccccc1)N1CCCC1c1cc(-c2ccncc2)c(-c2ccc(F)cc2)[nH]1 (centres undefined) equals 0.43

Known value: UniProtKB Q8MMZ8 log10(IC50) of the molecule `CN(C)Cc1ccn2c(-c3ccnc(NCc4ccccc4Cl)n3)c(-c3ccc(F)cc3)nc2c1` equals -1.25

Known value: UniProtKB Q8MMZ8 log10(IC50) of the molecule `CN(C)Cc1ccn2c(-c3ccnc(NCC(C)(C)C)n3)c(-c3ccc(F)cc3)nc2c1` equals -0.82

Known value: UniProtKB Q8MMZ8 log10(IC50) of the molecule `CN(C)Cc1ccn2c(-c3ccnc(NCc4ccc(Cl)cc4)n3)c(-c3ccc(F)cc3)nc2c1` equals -0.62

Known value: UniProtKB Q8MMZ8 log10(IC50) of the molecule `CN1CCC(c2[nH]c(-c3ccc(F)cc3)c(-c3ccncc3)c2Br)CC1` equals 0.08

Known value: UniProtKB Q8MMZ8 log10(IC50) of the molecule `Nc1nccc(-c2c(-c3ccc(F)cc3)nc3cc(C4CCNCC4)ccn23)n1` equals -1.34

Known value: UniProtKB Q8MMZ8 log10(IC50) of the molecule `CN1CCC(c2ccn3c(-c4ccnc(N)n4)c(-c4ccc(F)cc4)nc3c2)CC1` equals -1.36

* * *

Here is a set of compounds with reported IC50 for cGMP-dependent protein kinase (Eimeria tenella, UniProt Q8MMZ8), compiled from the literature.
Respond numerically; units are nM and should not be typed.

// field: IC50; key: `Nc1nccc(-c2c(-c3ccc(F)cc3)nc3cc(C4CCN(CCCO)CC4)ccn23)n1` ; value = 0.065

// field: IC50; key: `CN(C)c1ccn2c(-c3ccnc(N)n3)c(-c3ccc(F)cc3)nc2c1` ; value = 3

// field: IC50; key: `C#CCN(C)Cc1ccn2c(-c3ccnc(N)n3)c(-c3ccc(F)cc3)nc2c1` ; value = 0.65

// field: IC50; key: `CCCCC(=O)Nc1nccc(-c2c(-c3ccc(F)cc3)nc3cc(CN(C)C)ccn23)n1` ; value = 0.25

// field: IC50; key: `NCCN1CCC(c2cc(-c3ccncc3)c(-c3ccc(F)cc3)[nH]2)CC1` ; value = 0.28

// field: IC50; key: `Nc1nccc(-c2c(-c3ccc(F)cc3)nc3cc(Cl)ccn23)n1` ; value = 2.7

// field: IC50; key: OCCN1CCCC1c1cc(-c2ccncc2)c(-c2ccc(F)cc2)[nH]1 (stereo not given) ; value = 2.1

// field: IC50; key: `CC(C)Nc1nccc(-c2c(-c3ccc(F)cc3)nc3cc(CN4CCC4)ccn23)n1` ; value = 0.86

// field: IC50; key: `COCCNc1nccc(-c2c(-c3ccc(F)cc3)nc3cc(CN(C)C)ccn23)n1` ; value = 0.25

// field: IC50; key: `Fc1ccc(-c2[nH]c(C3CCN(CCN4CCC4)CC3)cc2-c2ccncc2)cc1` ; value = 0.08

// field: IC50; key: OC(COCc1ccco1)CN1CCC(c2cc(-c3ccncc3)c(-c3ccc(F)cc3)[nH]2)CC1 (stereo not given) ; value = 0.82

// field: IC50; key: CCC(c1ccn2c(-c3ccnc(N)n3)c(-c3ccc(F)cc3)nc2c1)N(C)C (stereo not given) ; value = 0.13

// field: IC50; key: `CN(C)C(=N)c1ccn2c(-c3ccnc(N)n3)c(-c3ccc(F)cc3)nc2c1` ; value = 2.5

// field: IC50; key: `CCCCNc1nccc(-c2c(-c3ccc(F)cc3)nc3cc(CN(C)C)ccn23)n1` ; value = 2.14

// field: IC50; key: `CN1C[C@H](O)C[C@H]1CN1CCC(c2cc(-c3ccncc3)c(-c3ccc(F)cc3)[nH]2)CC1` ; value = 0.34

// field: IC50; key: `CC(C)N(C)Cc1ccn2c(-c3ccnc(NC(C)(C)C)n3)c(-c3ccc(F)cc3)nc2c1` ; value = 2.8

// field: IC50; key: CC(O)[C@@H](CO)N1CCC(c2cc(-c3ccncc3)c(-c3ccc(F)cc3)[nH]2)CC1 (stereo not given in full) ; value = 1.01

// field: IC50; key: `CC(C)(N)c1ccn2c(-c3ccnc(N)n3)c(-c3ccc(F)cc3)nc2c1` ; value = 0.145

// field: IC50; key: `NCCCN1CCC(c2cc(-c3ccncc3)c(-c3ccc(F)cc3)[nH]2)CC1` ; value = 0.046

// field: IC50; key: `CN1CCC(c2cc(-c3ccncc3)c(-c3ccc(F)c(Cl)c3)[nH]2)CC1` ; value = 0.44
